Target: cytoplasmic kinase domain of human IGF-1R (IGF-1R-GST) (Homo sapiens, UniProt P08069)
Construct: cytoplasmic kinase domain of human IGF-1R (amino acids 964-1370); GST (glutathione-S-transferase)
Sequence (P08069 964-1367 limits assumed): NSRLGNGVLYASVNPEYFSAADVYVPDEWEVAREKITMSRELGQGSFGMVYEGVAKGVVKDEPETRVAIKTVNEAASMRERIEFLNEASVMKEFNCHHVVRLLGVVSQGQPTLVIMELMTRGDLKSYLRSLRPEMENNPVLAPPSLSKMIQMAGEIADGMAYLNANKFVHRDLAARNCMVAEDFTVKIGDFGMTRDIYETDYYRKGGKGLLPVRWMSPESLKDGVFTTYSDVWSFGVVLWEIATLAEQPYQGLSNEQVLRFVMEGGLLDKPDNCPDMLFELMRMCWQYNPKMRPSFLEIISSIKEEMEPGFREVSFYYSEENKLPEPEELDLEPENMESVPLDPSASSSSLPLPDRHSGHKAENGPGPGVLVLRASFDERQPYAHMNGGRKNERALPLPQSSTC
Assay: Insulin-like growth factor-1 receptor (IGF-1R) kinase assay (DELFIA)
Conditions: IGF-1R-GST kinase activity, read-out: IGF1R IC50
Method: Insulin-Like Growth Factor-1 Receptor (IGF-1R)-Kinase Assay The kinase activity is measured by DELFIA® assay (dissociation-enhanced lanthanide fluorescence immunoassay, Perkin Elmer). […] Enzyme activity is measured in the presence of substances and a control substance. […] After 40 min at RT the reactions are stopped with 50 μL of stop solution (250 mM EDTA, 20 mM HEPES pH 7.4). […] The fluorescence signal is measured with a Wallac Victor TRF Reader. […]
pIC50: −log10 of the molar value.
assay endpoint: pIC50

The following molecules have reported results that may help.
> print(dat)
                                   molecule                               target.desc  endpoint.result
1  Cc1cc([C@@H]2CCCN(CC(C)(C)O)C2)ccc1Nc1ncc(Br)c(NCc2cccc3c2C(C)(C)C(=O)N3)n1 [Example I-320]  cytoplasmic kinase domain of human IGF-1R (IGF-1R-GST) (Homo sapiens, UniProt P08069)             9.05
2  COc1cc(N2CCC(N3CCOCC3)CC2)ccc1Nc1ncc(C(F)(F)F)c(NCc2cccc3c2CC(=O)N3)n1 [Example I-196]  cytoplasmic kinase domain of human IGF-1R (IGF-1R-GST) (Homo sapiens, UniProt P08069)             8.10
3  Cc1cc(C2CCN(CC(C)(C)O)CC2)c(C)cc1Nc1ncc(C(F)(F)F)c(NCc2cccc3c2C(C)(C)C(=O)N3)n1 [Example I-312]  cytoplasmic kinase domain of human IGF-1R (IGF-1R-GST) (Homo sapiens, UniProt P08069)             7.57
4  COc1cc(N2CCC(N(C)C)CC2)ccc1Nc1ncc(C(F)(F)F)c(NCc2cccc3c2C(C)(C)C(=O)N3)n1 [Example I-181]  cytoplasmic kinase domain of human IGF-1R (IGF-1R-GST) (Homo sapiens, UniProt P08069)             8.70
5  Cc1cc(C2CCN(S(C)(=O)=O)CC2)ccc1Nc1ncc(Cl)c(NCc2cccc3c2C(C)(C)C(=O)N3)n1 [Example I-203]  cytoplasmic kinase domain of human IGF-1R (IGF-1R-GST) (Homo sapiens, UniProt P08069)             7.85

a: COc1cc(C2CCN(CC#N)CC2)ccc1Nc1ncc(Cl)c(NCc2cccc3c2C(C)(C)C(=O)N3)n1 [Example I-374]
b: COc1cc(N2CCN(CC3CC3)CC2)ccc1Nc1ncc(C(F)(F)F)c(NCc2cccc3c2CC(=O)N3)n1 [Example I-165]
Query: Hi, I'm comparing two records. Which one has the lower pIC50, a or b ? Lab note: record the label of whichever item you select.
Response: a
(a: 7.96, b: 8.40)
